biological target: HLA-B*44:02; test: IEDB peptide-MHC binding, purified MHC/direct/fluorescence; filed as Kd, often an IC50 or EC50 that approximates it; bounds were set here for any values at or beyond the usual limits of such assays; details: source organism: Cryptosporidium parvum
pKd: −log10 of the molar value.
MEASUREMENT_TYPE: pKd

Exercise: Could you tell me which pKd is on file for DFIGKTIGF ?
Key: ≤ 4.70

---

target: HLA-A*24:02; assay: IEDB peptide-MHC binding, purified MHC/competitive/radioactivity; filed as Kd, often an IC50 or EC50 that approximates it; bounds were set here for any values at or beyond the usual limits of such assays; conditions: source organism: Homo sapiens
MEASUREMENT_TYPE: pKd
# reply with the number alone; pKd is -log10 of concentration in mol/L

Exercise: Could you tell me which pKd is on file for AFLPWHRLF ?
Key: 7.70

---

# maps each entry to its Kd
biological target: HLA-B*15:01; assay: IEDB peptide-MHC binding, purified MHC/competitive/radioactivity; filed as Kd, often an IC50 or EC50 that approximates it; bounds were set here for any values at or beyond the usual limits of such assays; settings: source organism: Dengue virus 1 Brazil/97-11/1997
State the answer as a number, implicitly in nM.

>  <SEQUENCE_RECORD>
VMAFIAFLRF

>  <READING_UNIT>
nM

>  <Kd>
62.3

$$$$

Turning to the following sequence.
Exercise: Could you tell me which Kd is on file for LLMLVTPSM ?
Key: 2.26

---

biological target: HLA-A*26:02; experiment: IEDB peptide-MHC binding, purified MHC/direct/fluorescence; filed as Kd, often an IC50 or EC50 that approximates it; bounds were set here for any values at or beyond the usual limits of such assays; details: source organism: Bacillus cereus H3081.97
pKd: −log10 of the molar value.
MEASUREMENT_TYPE: pKd

Exercise: Could you tell me which pKd is on file for TVIRFWHAM ?
Key: ≥ 9.00

---

molecular target: HLA-A*26:01; assay: IEDB peptide-MHC binding, purified MHC/competitive/radioactivity; filed as Kd, often an IC50 or EC50 that approximates it; bounds were set here for any values at or beyond the usual limits of such assays; settings: source organism: Mammarenavirus choriomeningitidis
pKd: −log10 of the molar value.
MEASUREMENT_TYPE: pKd

Solved cases below.
>  <SEQUENCE_RECORD>
WCSQTDYQY

>  <OBSERVED_VALUE>
≤ 4.11

$$$$
>  <SEQUENCE_RECORD>
WCSQTDYQYL

>  <OBSERVED_VALUE>
≤ 4.16

$$$$

Turning to the following sequence.
Exercise: Could you tell me which pKd is on file for VKMPTHRHI ?
Key: ≤ 4.11

---

biological target: HLA-B*58:01; test: IEDB peptide-MHC binding, purified MHC/direct/fluorescence; filed as Kd, often an IC50 or EC50 that approximates it; bounds were set here for any values at or beyond the usual limits of such assays; settings: source organism: Influenza A virus (A/Puerto Rico/8/34/Mount Sinai(H1N1))
MEASUREMENT_TYPE: Kd (nM)
State the answer as a number, implicitly in nM.

Exercise: Could you tell me which Kd is on file for EMIWDPNGW ?
Key: 185

---

molecular target: HLA-B*07:02; test: IEDB peptide-MHC binding, purified MHC/direct/fluorescence; filed as Kd, often an IC50 or EC50 that approximates it; bounds were set here for any values at or beyond the usual limits of such assays; conditions: source organism: Brucella abortus
pKd: −log10 of the molar value.
MEASUREMENT_TYPE: pKd

Exercise: Could you tell me which pKd is on file for EKPPVRPIF ?
Key: ≤ 4.70
